- Tested on: SK-MEL-28 melanoma
- PROTOCOL NOTES: NCI tumour cell line growth inhibition, 48 h
ASSAY METRIC: GI50

| MOLECULE | GI50 |
| --- | --- |
| Cc1n[nH]c(C)c1-c1c(C)n[nH]c1C | 1.8 µM |
| CC(C)c1c(C(=O)Nc2ccccc2)c(-c2ccccc2)c(-c2ccc(F)cc2)n1CC[C@@H](O)C[C@@H](O)CC(=O)O | 18.2 µM |
| CCOc1ccc(-c2nc3ccc(-c4nc5ccc(N6CCN(C)CC6)cc5[nH]4)cc3[nH]2)cc1OCC | 0.701 µM |
| COc1cc(-c2nn(-c3cccc(NC(=O)NCCNC(=O)c4ccccc4)c3)cc2-c2ccncc2)ccc1Cl | 3.04 µM |
| FC(F)(F)c1ccc(-c2cnc(-c3nn[nH]n3)nc2NC2CCCCCC2)cc1 | > 10 µM |

Query: GI50; subject: Cc1cc(C)c(CNC(=O)c2cc(Cl)c3c(c2C)O[C@@](C)(C2CCC(N(C)C)CC2)O3)c(=O)[nH]1 (some centres undefined)
> 100 µM

Check CC1SC(c2ccc(OCc3ccccc3)cc2)N(NC(=O)C(O)(c2ccccc2)c2ccccc2)C1=O (centres undefined) too.
4.44 µM

Please give the result for `CNC(=S)N/N=C/CSC/C=N/NC(=S)NC` too.
> 100 µM

Cool, now CCCN1CCCC(c2ccc(Nc3nc(Nc4cc(F)ccc4C(N)=O)c4cc[nH]c4n3)c(OC)c2)C1 (centres undefined)
3.49 µM

###

- System: ACHN renal
- PROTOCOL NOTES: NCI tumour cell line growth inhibition, 48 h
ASSAY METRIC: TGI

| COMPOUND | RECORDED MEASUREMENT |
| --- | --- |
| COCc1nc(C#N)c(N)o1 | > 10 µM |

Item `COc1cccc(-c2cc(-c3ccc(Nc4nc(Nc5ccc(Cl)cc5)nc(Nc5ccc(Cl)cc5)n4)cc3)nc(N)c2C#N)c1` has what recorded TGI?
4.5 µM

And what about the compound `O=C(O)c1ccc2nc(-c3ccccn3)c(-c3ccccn3)nc2c1` ?
> 100 µM

Also `CC(=O)[O-].O=C([CH-]C(=O)c1ccccc1)c1ccccc1.O=C([CH-]C(=O)c1ccccc1)c1ccccc1.[Dy+3]` , if possible.
> 100 µM

Next: `COc1cnc2c(c1)C(=O)c1c-2n(CCCN2CCNCC2)c(=O)c2cc(F)ccc12`
0.554 µM

Try this compound too: O=C(O)OC12CCCCCC1C(=O)C1CCCCC12 (stereo unspecified)
> 100 µM

###

- Test system: HL-60(TB) leukemia
- PROTOCOL NOTES: NCI tumour cell line growth inhibition, 48 h
ASSAY METRIC: TGI (µM)
All answers are understood in µM, so give the number only.

| COMPOUND | RECORDED MEASUREMENT |
| --- | --- |
| Cc1n[nH]c(C)c1-c1c(C)n[nH]c1C | 6.95 |
| O=C(CNC(=O)c1cccc2ccccc12)Nc1ccccc1Oc1ccc(O)cc1 | 2.06 |
| CC1(C)CC[C@]2(C(=O)O)CC[C@]3(C)C(=CC[C@@H]4[C@@]5(C)C/C(=C/c6cccnc6)[C@H](O)C(C)(C)[C@@H]5CC[C@]43C)[C@@H]2C1 | 5.94 |

Report TGI for `COC1=C(OC)C(=O)c2cc(C)c(=O)c(C)cc2C1=O` please.
8.9

Now the compound `CCn1c(O)c(C(=O)Nc2cccs2)c(=O)n(CC)c1=S`
40

Input CC1SC(c2ccc(OCc3ccccc3)cc2)N(NC(=O)C(O)(c2ccccc2)c2ccccc2)C1=O (stereo not given)
5.02

Also, `CCCCCCCCCCCCOC(=N)N1CCOCC1` please.
3.26

What would you report for `C=C1C(=O)O[C@H]2[C@@H]3O[C@@](C)(CC/C=C(\C)CCC[C@@H]2C)[C@H](O)C[C@@H]13` ?
53

Please do the same for `COc1ccc(-c2cc(-c3ccc(Cl)cc3)c(C#N)c(=O)n2CCCCCC(=O)Nc2ccccc2N)cc1` as well.
7.12

Moving on to the next compound: `Nc1ccc(Oc2ccc(C3(c4ccc(Oc5ccc(N)c(O)c5)cc4)C4CC5CC(C4)CC3C5)cc2)cc1O`
5.3

Another compound: `COC(=O)c1c(C(=O)OC)c2ccccn2c1-c1cc(C)cc2c1C(=O)C=CC2=O`
5.04

What would you report for `CSc1ccc(/C=C2\N=C(c3ccccc3)N(NC(=O)c3c(Cl)c(Cl)c(Cl)c(Cl)c3-c3nc4ccccc4[nH]3)C2=O)cc1` ?
61

Now consider `N#CSc1c[nH]c2cccc(/C=C/C(=O)/C=C(O)/C=C/c3cccc4[nH]cc(SC#N)c34)c12` and answer again.
1.75

From: PubChem BioAssay (NCI)
